The reported numbers originate from patent US20210196796A1.

- SYSTEM_TESTED: T1, orthogonal hCD122 receptor (hoRb), hCD122 with H133D and Y134F (human, UniProt P14784 27-550); note: reference of the scale not given here
- T1 sequence: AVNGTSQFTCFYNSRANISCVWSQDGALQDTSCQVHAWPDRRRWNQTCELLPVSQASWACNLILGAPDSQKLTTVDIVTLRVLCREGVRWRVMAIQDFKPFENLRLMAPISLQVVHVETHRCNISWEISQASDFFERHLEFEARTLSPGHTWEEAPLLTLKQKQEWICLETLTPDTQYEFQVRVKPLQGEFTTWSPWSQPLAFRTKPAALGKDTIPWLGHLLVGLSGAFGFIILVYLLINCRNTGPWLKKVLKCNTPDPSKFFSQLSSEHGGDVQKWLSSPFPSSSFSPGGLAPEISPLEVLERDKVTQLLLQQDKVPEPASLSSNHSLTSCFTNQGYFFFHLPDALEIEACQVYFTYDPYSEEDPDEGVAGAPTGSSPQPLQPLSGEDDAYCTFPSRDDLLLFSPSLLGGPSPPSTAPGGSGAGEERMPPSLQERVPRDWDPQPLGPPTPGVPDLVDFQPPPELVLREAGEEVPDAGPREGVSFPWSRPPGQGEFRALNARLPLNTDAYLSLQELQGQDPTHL
- ASSAY_SUMMARY: cell-based or functional assay
REPORTED_ENDPOINT: Relative Proliferation Fold Change NKL 1:50 (fold)

BINDER: Q126E, SQVLKA (ligand) APTSSSTKKTQLQLSQLLVLLKAILNGINNYKNPKLTRMLTFKFYMPKKATELKHLQCLEEELKPLEEVLNLAQSKNFHLRPRDLISNINVIVLELKGSETTFMCEYADETATIVEFLNRWITFCESIISTLT
MEASURED: 0.55
//
BINDER: Q13W SQVLKA (ligand) APTSSSTKKTQLWLSQLLVLLKAILNGINNYKNPKLTRMLTFKFYMPKKATELKHLQCLEEELKPLEEVLNLAQSKNFHLRPRDLISNINVIVLELKGSETTFMCEYADETATIVEFLNRWITFCQSIISTLT
MEASURED: 0.63

(P) I86V, SQVLKA (ligand) APTSSSTKKTQLQLSQLLVLLKAILNGINNYKNPKLTRMLTFKFYMPKKATELKHLQCLEEELKPLEEVLNLAQSKNFHLRPRDLVSNINVIVLELKGSETTFMCEYADETATIVEFLNRWITFCQSIISTLT
(Q) L18I, SQVLKA (ligand) APTSSSTKKTQLQLSQLIVLLKAILNGINNYKNPKLTRMLTFKFYMPKKATELKHLQCLEEELKPLEEVLNLAQSKNFHLRPRDLISNINVIVLELKGSETTFMCEYADETATIVEFLNRWITFCQSIISTLT
*Q* Name the one with the greater Relative Proliferation Fold Change NKL 1:50 value, either P or Q as given. Select an item and report its label.
*A* P
(P: 1.42 fold, Q: 0.8 fold)
